B1: Twister Ribozyme (parent)
chain: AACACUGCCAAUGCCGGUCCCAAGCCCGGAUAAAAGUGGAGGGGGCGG

Variants of: B1
Experiment: self-cleavage, relative activity (ratio to wild type); higher = more cleavage; co-transcriptional
Classify by measured self-cleavage: yes (1) if it is equal to or exceeds 0.4, no (0) if it is smaller.

mutations="G28A A30C" answerlabel="yes (1)"
mutations="G36A U37C" answerlabel="no (0)"
mutations="C14G U18C" answerlabel="no (0)"
mutations="A35U G45C" answerlabel="yes (1)"
mutations="U6A A11G" answerlabel="yes (1)"
mutations="A4C C19G" answerlabel="no (0)"
mutations="C19A G28U" answerlabel="no (0)"
mutations="C3U C19U" answerlabel="no (0)"
mutations="A33U G38C" answerlabel="yes (1)"
mutations="U12G G39A" answerlabel="yes (1)"
mutations="G38C G41C" answerlabel="no (0)"
mutations="C27U A34G" answerlabel="yes (1)"
mutations="G7C C21A" answerlabel="no (0)"
mutations="G24C G44U" answerlabel="no (0)"
mutations="C8G G45A" answerlabel="no (0)"
mutations="G7A U18G" answerlabel="no (0)"
mutations="A23G G24A" answerlabel="no (0)"
mutations="C9A C46G" answerlabel="yes (1)"
mutations="A4G G47U" answerlabel="yes (1)"
mutations="G7C U12G" answerlabel="no (0)"
mutations="A33C G47C" answerlabel="no (0)"
mutations="G7A A34G" answerlabel="no (0)"
mutations="A34U G36C" answerlabel="no (0)"
mutations="A1U A22C" answerlabel="no (0)"
mutations="A10C G44C" answerlabel="yes (1)"
mutations="C5U U31A" answerlabel="yes (1)"
mutations="C9U A22C" answerlabel="yes (1)"
mutations="U31G G43U" answerlabel="yes (1)"
mutations="A1C G13U" answerlabel="no (0)"
mutations="C9A A11G" answerlabel="yes (1)"
mutations="C8G A30C" answerlabel="no (0)"
mutations="A22U A40G" answerlabel="yes (1)"
mutations="C19G A40G" answerlabel="no (0)"
mutations="A1U A33U" answerlabel="no (0)"
mutations="A22U G43U" answerlabel="no (0)"
mutations="A10G C14A" answerlabel="yes (1)"
mutations="C15G G38U" answerlabel="no (0)"
mutations="G7C A33C" answerlabel="no (0)"
mutations="G38A A40U" answerlabel="no (0)"
mutations="G13C A22C" answerlabel="yes (1)"
mutations="G17C A32G" answerlabel="no (0)"
mutations="G38C C46U" answerlabel="yes (1)"
mutations="A22G C27U" answerlabel="no (0)"
mutations="U6A G43C" answerlabel="no (0)"
mutations="A1C G44C" answerlabel="no (0)"
